Origin of the recorded values: ChEMBL document CHEMBL1144434

biological target: Caspase-6 (Homo sapiens); assay: Binding affinity against Caspase-6
Measured k3/ki values are reported for all entries that follow.

Some entries whose results are on file:
- Cc1cc(OCC(=O)[C@H](CC(=O)O)NC(=O)[C@@H](NC(=O)COc2cccc3ccccc23)C(C)C)nc(C)n1: 903 1/m/s
- CC(C)[C@H](NC(=O)COc1cccc2ccccc12)C(=O)N[C@@H](CC(=O)O)C(=O)CSc1ccccn1: 0 1/m/s
- CC(C)[C@H](NC(=O)COc1cccc2ccccc12)C(=O)N[C@@H](CC(=O)O)C(=O)COc1nc2ccccc2[nH]1: 0 1/m/s

*Q* I'd like to know its k3/ki. The molecule in question is CC(C)[C@H](NC(=O)COc1cccc2ccccc12)C(=O)N[C@@H](CC(=O)O)C(=O)COc1ncnc2ccccc12
*A* 0 1/m/s

*Q* Which k3/ki value is on record for CC(C)[C@H](NC(=O)COc1cccc2ccccc12)C(=O)N[C@@H](CC(=O)O)C(=O)CSc1nc2ccccc2s1 ?
*A* 0 1/m/s

*Q* Entry Cc1cc(C)nc(SCC(=O)[C@H](CC(=O)O)NC(=O)[C@@H](NC(=O)COc2cccc3ccccc23)C(C)C)n1 has what k3/ki?
*A* 656 1/m/s

*Q* Dear colleague, I am looking for the recorded k3/ki of the following molecule: CC(C)[C@H](NC(=O)COc1cccc2ccccc12)C(=O)N[C@@H](CC(=O)O)C(=O)CSc1nc(-c2ccccc2)c(-c2ccccc2)[nH]1
*A* 22 1/m/s

*Q* What does the data say about its k3/ki? Entry: CC(C)[C@H](NC(=O)COc1cccc2ccccc12)C(=O)N[C@@H](CC(=O)O)C(=O)COc1cc2ccccc2cn1
*A* 96 1/m/s

*Q* Fill in: k3/ki of Cc1nnc(SCC(=O)[C@H](CC(=O)O)NC(=O)[C@@H](NC(=O)COc2cccc3ccccc23)C(C)C)s1 is ___
*A* 83 1/m/s

* * *

biological target: Caspase-6 (Homo sapiens) (UniProt P55212); test: Binding affinity against Caspase-6
Sequence (P55212 24-179 limits assumed): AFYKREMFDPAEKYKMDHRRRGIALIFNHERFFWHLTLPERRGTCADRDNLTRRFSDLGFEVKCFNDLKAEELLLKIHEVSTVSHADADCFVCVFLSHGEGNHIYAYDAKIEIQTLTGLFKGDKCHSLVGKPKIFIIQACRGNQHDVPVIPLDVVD
Sequence (P55212 194-293 limits assumed): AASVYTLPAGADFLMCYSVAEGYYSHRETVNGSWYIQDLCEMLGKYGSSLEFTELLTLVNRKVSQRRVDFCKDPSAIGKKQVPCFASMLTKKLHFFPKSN
Quick list: k3/ki per entry.

Observe how each entry below is paired with its result.
- CC(C)[C@H](NC(=O)COc1cccc2ccccc12)C(=O)N[C@@H](CC(=O)O)C(=O)CSc1nnc(-c2ccccc2)o1: 110 1/m/s
- CC(C)[C@H](NC(=O)COc1cccc2ccccc12)C(=O)N[C@@H](CC(=O)O)C(=O)CSc1nncn1C: 221 1/m/s
- CC(C)[C@H](NC(=O)COc1cccc2ccccc12)C(=O)N[C@@H](CC(=O)O)C(=O)CSc1ncc[nH]1: 22 1/m/s
- CC(C)c1cc(OCC(=O)[C@H](CC(=O)O)NC(=O)[C@@H](NC(=O)COc2cccc3ccccc23)C(C)C)no1: 220 1/m/s
- CC(C)[C@H](NC(=O)COc1cccc2ccccc12)C(=O)N[C@@H](CC(=O)O)C(=O)COc1[nH]cnc2nncc1-2: 143 1/m/s

*Q* # lookup: k3/ki of CC(C)[C@H](NC(=O)COc1cccc2ccccc12)C(=O)N[C@@H](CC(=O)O)C(=O)COc1cc(C(F)(F)F)ncn1
*A* 156 1/m/s

*Q* For the compound CC(C)[C@H](NC(=O)COc1cccc2ccccc12)C(=O)N[C@@H](CC(=O)O)C(=O)CSC1=NCCS1 , what k3/ki is on record?
*A* 228 1/m/s

*Q* What measured k3/ki goes with CC(C)[C@H](NC(=O)COc1cccc2ccccc12)C(=O)N[C@@H](CC(=O)O)C(=O)CSc1nnnn1C ?
*A* 2150 1/m/s

*Q* Returns the measured k3/ki for the input compound. Input: CC(C)[C@H](NC(=O)COc1cccc2ccccc12)C(=O)N[C@@H](CC(=O)O)C(=O)CSc1nccn1C
*A* 570 1/m/s

*Q* State the recorded k3/ki for this entry: CC(C)[C@H](NC(=O)COc1cccc2ccccc12)C(=O)N[C@@H](CC(=O)O)C(=O)COc1nccc2ccccc12
*A* 462 1/m/s

*Q* Consider the compound shown here: CC(C)[C@H](NC(=O)COc1cccc2ccccc12)C(=O)N[C@@H](CC(=O)O)C(=O)COc1ccncn1 What is its recorded k3/ki?
*A* 0 1/m/s

*Q* Requested read-out: k3/ki. Entry: CC(C)[C@H](NC(=O)COc1cccc2ccccc12)C(=O)N[C@@H](CC(=O)O)C(=O)COc1ccc2ccccc2n1
*A* 0 1/m/s

*Q* Sample CC(C)[C@H](NC(=O)COc1cccc2ccccc12)C(=O)N[C@@H](CC(=O)O)C(=O)COn1nnc2ccccc21 — what was its k3/ki?
*A* 8530 1/m/s

*Q* Recorded k3/ki of CC(C)[C@H](NC(=O)COc1cccc2ccccc12)C(=O)N[C@@H](CC(=O)O)C(=O)CSc1nccc(C(F)(F)F)n1 , please.
*A* 0 1/m/s
